# Tested on: Plasmodium falciparum AMA1 (3D7) - RON2 peptide interaction
# assay name: qHTS for Inhibitors of AMA1-RON; Towards Development of Antimalarial Drug Lead: Primary Screen; note: nearly all actives have a fitted effect of over 45% in size
# details: AlphaScreen AMA1-biotinylated RON2 peptide binding; series mostly up to 58.2 µM
# Description: Plasmodium, the causative agent of malaria, is one of the world's deadliest parasitic diseases. Currently there is no vaccine available and there is widespread resistance to common anti-malarial drugs. This warrants novel, alternative approaches for developing improved therapy. […] In collaboration with the Miller lab, a quantitative High Throughput Screen using the AlphScreen technology was developed using a recombinant his-tagged AMA1 and a biotinylated RON2 peptide. […]
Among all 360,000 compounds or so, about 740 (0.21%) were called active. About 2% were inconclusive and are not listed. Calls come from the whole dose curve; as a rule, active = well fitted inhibition curve with a large enough effect; inconclusive = small, poorly fitted or top-dose-only effect; inactive = no such curve, though single readings can be large or run the other way. The list comes from a sample in which actives are over-represented; it also holds close analogues and randomly drawn compounds.
API: response.call in active, inactive

{"molecule": "COc1ccc(C2CC(c3ccc(C)cc3)Nc3nc(N)nn32)cc1 (configuration not stated)", "answer label": "active"}
{"molecule": "C/C=C/C=C/C(=O)OCC(=O)Nc1ccc(Cl)cc1", "answer label": "inactive"}
{"molecule": "Cc1ccc(C2CC(c3cccc(Br)c3)n3nc(N)nc3N2)cc1 (configuration not stated)", "answer label": "inactive"}
{"molecule": "CCOc1ccccc1-n1c(SCC(=O)NCc2ccco2)nnc1-c1ccncc1", "answer label": "inactive"}
{"molecule": "Cc1noc(C)c1S(=O)(=O)N(C)Cc1ccccc1", "answer label": "inactive"}

Input: Entry `C=CCn1c(SCc2c(C(=O)OC)sc(N)c2C(=O)OC)nnc1-c1ccc(Cl)cc1` : call = ?
Output: inactive

Input: Entry `CCCCN(C(=O)c1ccc(OC(F)(F)F)cc1)c1c(N)n(CCC)c(=O)[nH]c1=O` : call = ?
Output: inactive

Input: Entry CCn1c(SCC(=O)NC2=NCCS2)nnc1C(C)NC(=O)c1ccccc1F (configuration not stated) : call = ?
Output: inactive

Input: Entry CCCCCOC(=O)C1=C(C)Nc2nnnn2C1c1ccc(OC)c(OC)c1OC (configuration not stated) : call = ?
Output: inactive

Input: Entry Cc1ccc(N(C(=O)Cc2cccs2)C(C(=O)NCC2CCCO2)c2ccncc2)cc1 (configuration not stated) : call = ?
Output: inactive

###

# Test system: Plasmodium falciparum AMA1 (3D7) - RON2 peptide interaction
# assay name: qHTS for Inhibitors of AMA1-RON; Towards Development of Antimalarial Drug Lead: Primary Screen; note: nearly all actives have a fitted effect of over 45% in size
# details: AlphaScreen AMA1-biotinylated RON2 peptide binding; series mostly up to 58.2 µM
About 740 (0.21%) of roughly 360,000 compounds were called active. About 2% were inconclusive and are not listed. The call rests on the fitted dose curve; in most records, active means well fitted inhibition curve with a large enough effect; inconclusive means small, poorly fitted or top-dose-only effect; inactive means no such curve, though single readings can be large or run the other way. Shown is part of a subset that was picked to be rich in actives.
API: response.call in True for active, False for inactive

Here's what some known entries look like.
{"compound": "CCn1c(SCC(=O)Nc2cc(C)c(Cl)cc2OC)nnc1-c1ccco1", "target or test system": "Plasmodium falciparum AMA1 (3D7) - RON2 peptide interaction", "answer label": "True"}
{"compound": "C=C1c2c(Cl)ccc(O)c2C(O)=C2C(=O)[C@]3(O)C(O)=C(C(N)=O)C(=O)[C@@H](N(C)C)[C@@H]3[C@@H](O)C12 (stereo not given in full)", "target or test system": "Plasmodium falciparum AMA1 (3D7) - RON2 peptide interaction", "answer label": "True"}
{"compound": "CC(C)(C)c1nnc(N/N=C/c2ccc(O)cc2)n(N)c1=O", "target or test system": "Plasmodium falciparum AMA1 (3D7) - RON2 peptide interaction", "answer label": "False"}
{"compound": "COc1ccc(C(C#N)=C2C=CC(=NO)c3ccccc32)cc1", "target or test system": "Plasmodium falciparum AMA1 (3D7) - RON2 peptide interaction", "answer label": "True"}
{"compound": "CC1=C(C(=O)OC(C)(C)C)C(c2ccc(Br)cc2)NC(=O)N1CCCC(=O)O (stereo not given)", "target or test system": "Plasmodium falciparum AMA1 (3D7) - RON2 peptide interaction", "answer label": "False"}

Input: Entry CC(C)(C)C1CCC(=O)N2CCC[C@]2(c2ccccc2)C1 (stereo not given in full) : call = ?
Output: False

Input: Entry `Cc1ccc(-n2ncc(C(=O)NC3CC3)c2C2CCN(C(=O)OC(C)(C)C)CC2)c(C)c1` : call = ?
Output: False

Input: Entry CC(NC(=O)c1ccc(N2CCNCC2)c([N+](=O)[O-])c1)C12CC3CC(CC(C3)C1)C2 (stereo not given) : call = ?
Output: False

Input: Entry `C=CCNc1nc(N)c(C(=C(C#N)C#N)c2ccccc2)s1` : call = ?
Output: False

Input: Entry `O=C(Nc1cccc(S(=O)(=O)NC2=NCCC2)c1)C1CCCCC1` : call = ?
Output: False

Input: Entry `COc1cc(Cl)c(C)cc1NC(=O)CSc1nnc(CN2CCCC2)o1` : call = ?
Output: False

Input: Entry CCCC1(C(=O)OC)NC(c2ccco2)C2C(=O)N(C)C(=O)C21 (stereo not given) : call = ?
Output: False

Input: Entry `Oc1ccc2ccccc2c1N=Nc1nccs1` : call = ?
Output: True

Input: Entry `COc1cc(Cl)c(C)cc1NC(=O)CSc1nnc(-c2ccco2)n1CC(C)C` : call = ?
Output: False

Input: Entry `COCCN(C(=O)c1ccco1)c1nnc(-c2ccc(OC)cc2)s1` : call = ?
Output: False
